- testTarget: UniProt:P10275
- protocolSummary: LNCaP-AR-wt ANT reporter assay (antagonist mode)
- Type: cell-based
- conditionContext: antagonist mode; pIC50 = −Log10(IC50 in Molar); read-out: LNCaP-AR-wt ANT pIC50 (converted)
experimentalEndpoint: IC50 (nM)

>  <compound>
N#Cc1ncc(N2C(=O)C3(CCC3)N(c3ccc(OC4CCNC(=O)C4)cc3)C2=S)cc1C(F)(F)F (racemic)

>  <value>
186

$$$$
>  <compound>
N#Cc1ncc(N2C(=O)C3(CCC3)N(c3ccc(OC4CCN(CC(F)(F)F)CC4)cc3)C2=S)cc1C(F)(F)F

>  <value>
537

$$$$
>  <compound>
COc1cc(N2C(=O)C3(CCC3)N(c3ccc(CC4CCNCC4)cc3)C2=S)cnc1C#N

>  <value>
457

$$$$
>  <compound>
CCOC(=O)N1CCN(C(=O)c2ccc(N3C(=S)N(c4cnc(C#N)c(C(F)(F)F)c4)C(=O)C34CCC4)cc2)CC1

>  <value>
1290

$$$$
>  <compound>
CN1CC[C@@H](Oc2ccc(N3C(=S)N(c4cnc(C#N)c(C(F)(F)F)c4)C(=O)C34CCC4)cc2)C1

>  <value>
1120

$$$$
>  <compound>
COc1cc(N2C(=O)C3(CCC3)N(c3ccc4nn(C5CCN(C)CC5)cc4c3)C2=S)cnc1C#N

>  <value>
347

$$$$
>  <compound>
CC1(Oc2ccc(N3C(=S)N(c4cnc(C#N)c(C(F)(F)F)c4)C(=O)C34CCC4)cc2)CCNCC1

>  <value>
1000

$$$$
>  <compound>
N#Cc1ncc(N2C(=O)C3(CCC3)N(c3ccc(CC4CCC(N)CC4)cc3)C2=S)cc1C(F)(F)F (centres unmarked)

>  <value>
240

$$$$
>  <compound>
CN1CCC(NC(=O)c2ccc(N3C(=S)N(c4cnc(C#N)c(C(F)(F)F)c4)C(=O)C34CCC4)cc2)C1 (centres unmarked)

>  <value>
1580

$$$$
>  <compound>
CC(=O)N1CC(F)(F)CC1COc1ccc(N2C(=S)N(c3cnc(C#N)c(C(F)(F)F)c3)C(=O)C23CCC3)cc1 (centres unmarked)

>  <value>
102

$$$$
>  <compound>
N#Cc1ncc(N2C(=O)C3(CCC3)N(c3ccc(OCCN4CC5(C4)CC(F)(F)C5)cc3)C2=S)cc1C(F)(F)F

>  <value>
229

$$$$
>  <compound>
COCCN1CCC(Oc2ccc(N3C(=S)N(c4cnc(C#N)c(Cl)c4)C(=O)C34CCC4)cn2)CC1

>  <value>
33.9

$$$$
>  <compound>
C#CCN1CCC(Oc2ccc(N3C(=S)N(c4cnc(C#N)c(C(F)(F)F)c4)C(=O)C34CCC4)cn2)CC1

>  <value>
69.2

$$$$
>  <compound>
COCCn1ncc2cc(N3C(=S)N(c4cnc(C#N)c(C(F)(F)F)c4)C(=O)C34CCC4)ccc21

>  <value>
589

$$$$
>  <compound>
N#Cc1ncc(N2C(=O)C3(CCC3)N(c3ccc(OCC4CNCCO4)cc3)C2=S)cc1C(F)(F)F (centres unmarked)

>  <value>
72.4

$$$$
>  <compound>
COCCn1cc2cc(N3C(=S)N(c4cnc(C#N)c(Cl)c4)C(=O)C34CCC4)ccc2n1

>  <value>
186

$$$$
>  <compound>
Cc1cc(N2C(=O)C3(CCC3)N(c3ccc(OC4CCN(CCO)CC4)nc3)C2=S)cnc1C#N

>  <value>
162

$$$$
>  <compound>
CN1CCC(CNC(=O)c2ccc(N3C(=S)N(c4cnc(C#N)c(C(F)(F)F)c4)C(=O)C34CCC4)cc2)CC1

>  <value>
275

$$$$
>  <compound>
CC(C)(C)OC(=O)N1CCC12CC(Oc1ccc(N3C(=S)N(c4cnc(C#N)c(C(F)(F)F)c4)C(=O)C34CCC4)cn1)C2 (centres unmarked)

>  <value>
398

$$$$
>  <compound>
CN1CCC(c2nc3cc(N4C(=S)N(c5cnc(C#N)c(C(F)(F)F)c5)C(=O)C45CCC5)ccc3[nH]2)CC1

>  <value>
4790

$$$$
>  <compound>
Cn1cc2cc(N3C(=S)N(c4cnc(C#N)c(C(F)(F)F)c4)C(=O)C34CCC4)ccc2n1

>  <value>
407

$$$$
>  <compound>
CN1CC(Oc2ccc(N3C(=S)N(c4cnc(C#N)c(C(F)(F)F)c4)C(=O)C34CCC4)cc2)C1

>  <value>
525

$$$$
>  <compound>
N#Cc1ncc(N2C(=O)C3(CCC3)N(c3ccc(O[C@@H]4CCN[C@@H](C(F)(F)F)C4)cc3)C2=S)cc1C(F)(F)F (racemic)

>  <value>
174

$$$$
>  <compound>
CN1CCC(CN(C)C(=O)c2ccc(N3C(=S)N(c4cnc(C#N)c(C(F)(F)F)c4)C(=O)C34CCC4)cc2)CC1

>  <value>
457

$$$$
>  <compound>
CC(=O)N1CCc2cc(N3C(=S)N(c4cnc(C#N)c(C(F)(F)F)c4)C(=O)C34CCC4)ccc2C1

>  <value>
200

$$$$
>  <compound>
COCCn1ncc2cc(N3C(=S)N(c4cnc(C#N)c(OC)c4)C(=O)C34CCC4)ccc21

>  <value>
437

$$$$
>  <compound>
CN1CCC(n2cc3ccc(N4C(=S)N(c5cnc(C#N)c(C(F)(F)F)c5)C(=O)C45CCC5)cc3n2)CC1

>  <value>
1620

$$$$
>  <compound>
Cc1cc(N2C(=O)C3(CCC3)N(c3ccc(OC4CCN(CCF)CC4)nc3)C2=S)cnc1C#N

>  <value>
93.3

$$$$
>  <compound>
CN1CC(CNC(=O)c2ccc(N3C(=S)N(c4cnc(C#N)c(C(F)(F)F)c4)C(=O)C34CCC4)cc2)C1

>  <value>
1620

$$$$

====

- testTarget: wild-type Androgen Receptor (AR-wt) (Homo sapiens (Human))
- Sequence (P10275 whole entry): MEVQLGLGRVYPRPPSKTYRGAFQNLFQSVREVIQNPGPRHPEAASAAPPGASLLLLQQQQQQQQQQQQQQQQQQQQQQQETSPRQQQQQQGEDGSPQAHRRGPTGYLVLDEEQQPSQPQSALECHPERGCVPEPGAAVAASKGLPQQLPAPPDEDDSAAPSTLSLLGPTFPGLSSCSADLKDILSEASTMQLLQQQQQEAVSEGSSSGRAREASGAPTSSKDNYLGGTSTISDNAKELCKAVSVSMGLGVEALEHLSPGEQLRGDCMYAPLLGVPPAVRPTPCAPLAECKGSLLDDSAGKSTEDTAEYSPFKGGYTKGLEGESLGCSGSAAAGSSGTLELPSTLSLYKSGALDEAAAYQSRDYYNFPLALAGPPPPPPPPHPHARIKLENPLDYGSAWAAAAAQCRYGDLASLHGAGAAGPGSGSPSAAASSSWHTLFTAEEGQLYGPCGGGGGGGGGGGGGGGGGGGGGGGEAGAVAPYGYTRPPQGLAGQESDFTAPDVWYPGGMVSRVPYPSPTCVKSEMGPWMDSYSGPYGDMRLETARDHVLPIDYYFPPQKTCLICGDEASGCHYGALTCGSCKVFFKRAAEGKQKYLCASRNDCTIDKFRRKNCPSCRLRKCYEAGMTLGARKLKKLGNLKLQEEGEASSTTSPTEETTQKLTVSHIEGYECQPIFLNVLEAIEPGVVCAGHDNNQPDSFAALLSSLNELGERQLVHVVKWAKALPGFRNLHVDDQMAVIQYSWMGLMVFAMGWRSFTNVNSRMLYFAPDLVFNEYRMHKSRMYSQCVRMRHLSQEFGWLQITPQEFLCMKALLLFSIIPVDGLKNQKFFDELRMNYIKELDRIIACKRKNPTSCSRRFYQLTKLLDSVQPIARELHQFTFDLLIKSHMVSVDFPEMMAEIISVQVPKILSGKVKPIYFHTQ
- protocolSummary: LNCaP-AR-wt ANT reporter assay (antagonist mode)
- Assay type: cell-based
- conditionContext: antagonist mode; pIC50 = −Log10(IC50 in Molar); read-out: LNCaP-AR-wt ANT pIC50 (converted)
Flag rule - IC50 less than 1000 nM flags rule met; the remaining entries get rule not met.

>  <compound>
N#Cc1ncc(N2C(=O)C3(CCC3)N(c3ccc(O)nc3)C2=S)cc1Cl

>  <testTarget>
wild-type Androgen Receptor (AR-wt) (Homo sapiens (Human))

>  <class>
rule not met

$$$$
>  <compound>
N#Cc1ncc(N2C(=O)C3(CCC3)N(c3ccc4ccn(CCO)c4c3)C2=S)cc1C(F)(F)F

>  <testTarget>
wild-type Androgen Receptor (AR-wt) (Homo sapiens (Human))

>  <class>
rule not met

$$$$
>  <compound>
CN1CC[C@@H](CNC(=O)c2ccc(N3C(=S)N(c4cnc(C#N)c(C(F)(F)F)c4)C(=O)C34CCC4)cc2F)C1

>  <testTarget>
wild-type Androgen Receptor (AR-wt) (Homo sapiens (Human))

>  <class>
rule not met

$$$$
>  <compound>
CN1CCC(Cn2cc3cc(N4C(=S)N(c5cnc(C#N)c(C(F)(F)F)c5)C(=O)C45CCC5)ccc3n2)CC1

>  <testTarget>
wild-type Androgen Receptor (AR-wt) (Homo sapiens (Human))

>  <class>
rule met

$$$$
>  <compound>
N#Cc1ncc(N2C(=O)C3(CCC3)N(c3ccc(OC4CC5(CCN5)C4)cc3)C2=S)cc1C(F)(F)F (stereo not shown)

>  <testTarget>
wild-type Androgen Receptor (AR-wt) (Homo sapiens (Human))

>  <class>
rule met

$$$$
>  <compound>
CN1CCC(Cn2ncc3cc(N4C(=S)N(c5cnc(C#N)c(C(F)(F)F)c5)C(=O)C45CCC5)ccc32)CC1

>  <testTarget>
wild-type Androgen Receptor (AR-wt) (Homo sapiens (Human))

>  <class>
rule met

$$$$
>  <compound>
CN1CC(CCOc2ccc(N3C(=S)N(c4cnc(C#N)c(C(F)(F)F)c4)C(=O)C34CCC4)cc2)C1

>  <testTarget>
wild-type Androgen Receptor (AR-wt) (Homo sapiens (Human))

>  <class>
rule met

$$$$

====

- testTarget: AR W741C (Homo sapiens (Human), UniProt P10275, W742C)
- Sequence (P10275 whole entry W742C): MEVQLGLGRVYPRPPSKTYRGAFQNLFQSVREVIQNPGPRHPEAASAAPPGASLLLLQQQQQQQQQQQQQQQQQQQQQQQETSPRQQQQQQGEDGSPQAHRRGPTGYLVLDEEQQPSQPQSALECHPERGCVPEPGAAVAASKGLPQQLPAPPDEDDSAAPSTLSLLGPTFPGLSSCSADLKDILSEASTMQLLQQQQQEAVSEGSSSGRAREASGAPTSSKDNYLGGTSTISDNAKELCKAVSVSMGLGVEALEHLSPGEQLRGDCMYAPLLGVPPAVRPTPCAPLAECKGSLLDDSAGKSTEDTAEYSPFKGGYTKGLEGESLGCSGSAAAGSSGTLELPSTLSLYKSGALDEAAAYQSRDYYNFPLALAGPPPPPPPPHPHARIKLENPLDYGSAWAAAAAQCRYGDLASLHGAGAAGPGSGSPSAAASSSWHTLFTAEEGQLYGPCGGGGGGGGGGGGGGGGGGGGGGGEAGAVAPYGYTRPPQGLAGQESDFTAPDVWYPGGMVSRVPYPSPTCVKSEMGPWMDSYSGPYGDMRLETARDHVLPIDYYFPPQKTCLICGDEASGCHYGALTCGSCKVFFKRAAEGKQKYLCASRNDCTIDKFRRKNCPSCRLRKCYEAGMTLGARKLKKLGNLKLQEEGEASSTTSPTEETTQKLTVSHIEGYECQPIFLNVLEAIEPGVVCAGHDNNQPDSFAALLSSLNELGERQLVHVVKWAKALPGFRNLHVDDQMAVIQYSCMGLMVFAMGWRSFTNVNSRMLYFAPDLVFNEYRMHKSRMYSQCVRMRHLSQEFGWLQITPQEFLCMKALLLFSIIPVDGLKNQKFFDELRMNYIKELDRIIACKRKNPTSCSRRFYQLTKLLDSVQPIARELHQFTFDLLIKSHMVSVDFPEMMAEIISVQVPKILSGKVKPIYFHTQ
- protocolSummary: Luciferase Transcriptional Reporter Assay, AR W741C (HepG2)
- conditionContext: HepG2, agonist mode, 48 hours; read-out: Agonism EC50, AR construct W741C
pEC50: −log10 of the molar value.
experimentalEndpoint: pEC50

>  <smiles>
N#Cc1ncc(N2C(=O)C3(CCC3)N(c3ccc(OC4CCNCC4)nc3)C2=S)cc1C(F)(F)F

>  <value>
5.55

$$$$
